B1: Osa-1-4 twister ribozyme (parent)
chain: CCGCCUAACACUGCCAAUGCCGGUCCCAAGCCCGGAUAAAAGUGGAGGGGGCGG

variants of: B1; assay: self-cleavage, relative activity (ratio to wild type); higher = more cleavage; co-transcriptional
Output: class label from self-cleavage. Mapping: Low: < 0.06; Mid: ≥ 0.06 and < 0.1; High: ≥ 0.1

construct-sequence	class-label
CCGCCUAACACAGCCAAUGCCAGUCCCAAGCCCGGAUAAAAGUGGAGGGGGCGG	High
CCGCCUAACACUGCCAAUGCCGGUCCUAAGCCCGGACAAAAGUGGAGGGGGCGG	High
CCGCCUAACACUGCCAAUGCCGGUCCCAAGCCCGGAUAAAUGUGUAGGGGGCGG	High
CCGCCUAACACUGACAAUGCCGGUCCCAAGCCCGGAUAAAAGUAGAGGGGGCGG	Mid
CCGCCUAACACUGCCAAUGCCGGUCCCUAGCCCGGAUAAAAGUGGAGGGGGCAG	High
CCGCCUAACACUGCCAAUGCCGGUUCCAAGCCCGGAUAAAAGUGGAGGGCGCGG	High
CCGCCUAACACUGCCAAUGCCGGUCCCAAGCCCGUAUAAAAGUGGAGGGAGCGG	High
CCGCCUAACACUGCCAAUGCCGGUCCCAAGCCCGGAUAAAAGUGGCAGGGGCGG	Low
CCGCCUAACACUGCCAAUGCCGGUCCAAAGCCCGGAUAAAAUUGGAGGGGGCGG	Low
CCGCCUAACACUGCCAAUGCCGGUCCCAAGCCCGGAUAAGAGCGGAGGGGGCGG	High
CCGCCUAACACUGCCAAUGCCGGUCCCAAGCCCGGAAAAAAGUGGAGGGGGAGG	High
CCGCCUAACACUACCAAUGCGGGUCCCAAGCCCGGAUAAAAGUGGAGGGGGCGG	Low
CCGCCUAACCCUGCCAAUGCCGGUCCCAAGCCCGGAUAAAAGUUGAGGGGGCGG	High
CCGCCUAACACUGCCAAUGCCGGUCCCAAGUCCGGAUAAAAGUAGAGGGGGCGG	High
CCGCCUAACACUACCAAUGCCGCUCCCAAGCCCGGAUAAAAGUGGAGGGGGCGG	Low
CCGCCUAACACAGCCAAUGCCGGUCCCAAGCCCGGAUAGAAGUGGAGGGGGCGG	High
CCGCCUAACACUGCCAAUGCCGCUCCCAAGCCCGGAUAAAAGUGGAGAGGGCGG	Low
CCGCCUAACCCUGCCAAUGCCGGACCCAAGCCCGGAUAAAAGUGGAGGGGGCGG	Low
CCGCCUAACACUGCCAAUGCCGGUCCCACGCCCGGAUAAAAGUGGAGGGUGCGG	Low
CCGCCUAACACUGCCAUUGCCGGUCCCAAGCCCGGAUAAAACUGGAGGGGGCGG	High
CCGCCUAACACUGCGAAUGCCGGUUCCAAGCCCGGAUAAAAGUGGAGGGGGCGG	High
CCGCCUAACGCUGCCAAUGCCGGUCACAAGCCCGGAUAAAAGUGGAGGGGGCGG	Low
CCGCCUAACACUGCCAAUGCCGGUCUCAAGCCCGGAUAAAAGUGGAGGGGGCGU	High
CCGCCUAACACUGCCAAUGCCGGUCCCAAGCCCGGAUAUAAGUGGAGGUGGCGG	Mid
CCGCCUAACACUGCCAACGACGGUCCCAAGCCCGGAUAAAAGUGGAGGGGGCGG	High
CCGCCUAACACAGCCAAUGCCGGUCCCAAGCCCGGAUAAAAGAGGAGGGGGCGG	High
CCGCCUAACACUACCAAUGCCGGUCCCAAGCCCGGAUAAAAGUGGGGGGGGCGG	Low
CCGCCUAACACUGCCAAUGCCGGUCCCAGGCCCGGAUAAAAGUGAAGGGGGCGG	Low
CCGCCUAACACUGCCCAUGCCGGUCCCAAGCGCGGAUAAAAGUGGAGGGGGCGG	High
CCGCCUAACACUGCCAAUGCCGGUCCCAAGCCCGGCUAAAAGUGGAGGGGCCGG	Mid
CCGCCUAACACUGCCAAUGCCGCUCCCAAACCCGGAUAAAAGUGGAGGGGGCGG	Low
CCGCCUAACACUGCCAAUGCCGGUCCCAAGCCCGGAUAAAGGUUGAGGGGGCGG	High
CCGCCUAACACUGCCAAUCCCGGUCCCAAGCCCGGAUAAAAGGGGAGGGGGCGG	Mid
CCGCCUAACACUGCCAAUGACGGUCCCAAGCCCGGAUAAAAGUGGAGGGGGCGU	High
CCGCCUAUUACUGCCAAUGCCGGUCCCAAGCCCGGAUAAAAGUGGAGGGGGCGG	Mid
CCGCCUAACACUGCCAAUGCCGGUCCCGAUCCCGGAUAAAAGUGGAGGGGGCGG	Low
CCGCCUAACACUGCCAAUGACGGUCCCAAGCCCGGAAAAAAGUGGAGGGGGCGG	High
CCGCCUAACACUGCCAAUGCCGGUCCCAAGCCUGGAUAAAAGUGGAGGGGUCGG	High
CCGCCUAACACUGCCAAUGCCGGUCCCAAGCCCGGAUAAAAGUGCUGGGGGCGG	Low
CCGCCUAACAAUGCCAAUGCCGGGCCCAAGCCCGGAUAAAAGUGGAGGGGGCGG	Mid
